Hey, just so you know, these numbers are from patent US12018021B2.

TARGET OR SYSTEM: IgE-Tb / FcεRIα-Y131A-AF488 (Homo sapiens)
Sequence (P01854 1-427 limits assumed, stated change not applied): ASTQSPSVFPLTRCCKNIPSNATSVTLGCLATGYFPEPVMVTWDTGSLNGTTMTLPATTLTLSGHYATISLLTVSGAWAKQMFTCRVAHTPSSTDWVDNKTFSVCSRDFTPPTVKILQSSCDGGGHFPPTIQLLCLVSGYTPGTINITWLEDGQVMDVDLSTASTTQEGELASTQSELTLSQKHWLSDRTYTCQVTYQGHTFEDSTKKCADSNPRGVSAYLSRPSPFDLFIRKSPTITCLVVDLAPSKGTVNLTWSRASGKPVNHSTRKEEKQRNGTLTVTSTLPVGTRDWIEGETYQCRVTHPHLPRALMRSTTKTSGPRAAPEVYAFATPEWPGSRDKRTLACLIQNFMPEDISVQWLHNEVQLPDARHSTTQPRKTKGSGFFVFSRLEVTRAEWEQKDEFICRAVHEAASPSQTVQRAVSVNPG
EXPERIMENTAL PROTOCOL: IgE-Tb / FcεRIα-Y131A-AF488 FRET assay (protocol for examples 1 to 233)
REPORTED CONDITIONS: examples 1 to 233: 5 nM IgE-Tb, 25 nM FcεRIα-Y131A-AF488, incubated 2 hours at room temperature; read-out: Y131A FRET IC50 range
This section presents compounds with their documented IC50 values.
MEASUREMENT KIND: IC50

{"COMPOUND": "O=C(NCC1CC1)c1c(NC(=O)C2CC2)sc2c1CC(C(=O)NCCc1ccc(O)cc1)CC2 (stereo not shown)", "VALUE REPORTED": "< 1000 nM"}
{"COMPOUND": "CCOC(=O)C1CCc2sc(NC(=O)C3CC3)c(C(=O)NCC3CC3)c2C1 (stereo not shown)", "VALUE REPORTED": "1000 to 10000 nM"}
{"COMPOUND": "COc1ccccc1NC(=O)NC1CCc2sc(NC(=O)C3CC3)c(C(=O)NCC3CC3)c2C1 (stereo not shown)", "VALUE REPORTED": "< 1000 nM"}
{"COMPOUND": "N#CN=C(NCC(F)(F)F)NC1CCc2sc(NC(=O)C3CC3)c(C(=O)NCC3CC3)c2C1 (stereo not shown)", "VALUE REPORTED": "< 1000 nM"}
{"COMPOUND": "O=C(NCC1CC1)c1c(NC(=O)C2CC2)sc2c1CC(C(=O)Nc1nnn[nH]1)CC2 (stereo not shown)", "VALUE REPORTED": "< 1000 nM"}
{"COMPOUND": "CCN/C(=N\\[N+](=O)[O-])N[C@H]1CCc2sc(NC(=O)C3CC3)c(C(=O)NCC3CC3)c2C1", "VALUE REPORTED": "< 1000 nM"}
{"COMPOUND": "O=C(NCC1CC1)c1c(NC(=O)C2CC2)sc2c1CC(C(=O)Nc1nccs1)CC2 (stereo not shown)", "VALUE REPORTED": "< 1000 nM"}
{"COMPOUND": "Cc1ccc(Nc2c(NC3CCc4sc(NC(=O)C5CC5)c(C(=O)NCC5CC5)c4C3)c(=O)c2=O)cc1 (stereo not shown)", "VALUE REPORTED": "< 1000 nM"}
{"COMPOUND": "O=C(Nc1sc2c(c1C(=O)N1CCC3(CC3)C1)CC(n1cnnc1Nc1cccnc1)CC2)C1CC1 (single isomer, unassigned) [Example 128]", "VALUE REPORTED": "< 1000 nM"}
{"COMPOUND": "CCCCS(=O)(=O)c1c(NC(=O)C2CC2)sc2c1CCCC2", "VALUE REPORTED": "1000 to 10000 nM"}
{"COMPOUND": "CCCNS(=O)(=O)c1c(NC(=O)C2CC2)sc2c1CCCC2", "VALUE REPORTED": "< 1000 nM"}
{"COMPOUND": "O=C(NCC1CC1)c1c(NC(=O)C2CC2)sc2c1CC(Nc1nc(=O)cc[nH]1)CC2 (stereo not shown)", "VALUE REPORTED": "< 1000 nM"}
{"COMPOUND": "COc1ccc(NC(=NC#N)NC2CCc3sc(NC(=O)C4CC4)c(C(=O)NCC4CC4)c3C2)cc1OC (stereo not shown)", "VALUE REPORTED": "< 1000 nM"}
{"COMPOUND": "CC1Cc2c(sc(NC(=O)C3CC3)c2C(=O)NCC2CC2)C(C)C1 (stereo not shown)", "VALUE REPORTED": "1000 to 10000 nM"}
{"COMPOUND": "O=C(NCC1CC1)c1c(NC(=O)C2CC2)sc2c1C[C@@H](n1cnnc1Nc1ccc[n+]([O-])c1)CC2", "VALUE REPORTED": "< 1000 nM"}
{"COMPOUND": "Cc1cc(Nc2nncn2[C@H]2CCc3sc(NC(=O)C4CC4)c(C(=O)NCC4CC4)c3C2)n(C(C)C)n1", "VALUE REPORTED": "< 1000 nM"}
{"COMPOUND": "CC1(O)CCc2sc(NC(=O)C3CC3)c(C(=O)NCC3CC3)c2C1 (stereo not shown)", "VALUE REPORTED": "10000 to 50000 nM"}
{"COMPOUND": "Cn1nc(C2CC2)cc1Nc1nncn1[C@H]1CCc2sc(NC(=O)C3CC3)c(C(=O)NCC3CC3)c2C1", "VALUE REPORTED": "< 1000 nM"}
{"COMPOUND": "Cc1cc(Nc2nncn2[C@@H]2CCc3sc(NC(=O)C4CC4)c(C(=O)NCC4CC4)c3C2)n(C)n1", "VALUE REPORTED": "< 1000 nM"}
{"COMPOUND": "CNC(=O)c1ncn([C@H]2CCc3sc(NC(=O)C4CC4)c(C(=O)NCC4CC4)c3C2)c1N", "VALUE REPORTED": "< 1000 nM"}
{"COMPOUND": "O=C(NCC1CC1)c1c(NC(=O)C2CC2)sc2c1CC(C(=O)Nc1ccc3nccnc3c1)CC2 (stereo not shown)", "VALUE REPORTED": "< 1000 nM"}
{"COMPOUND": "CCNc1nnc(COC)n1C1CCc2sc(NC(=O)C3CC3)c(C(=O)NCC3CC3)c2C1 (stereo not shown)", "VALUE REPORTED": "1000 to 10000 nM"}
{"COMPOUND": "CC(=O)N1CCc2sc(NC(=O)C3CC3)c(C(=O)NCC3CC3)c2C1", "VALUE REPORTED": "10000 to 50000 nM"}
{"COMPOUND": "CCNC(=O)NC1CCc2sc(NC(=O)C3CC3)c(C(=O)NCC3CC3)c2C1 (stereo not shown)", "VALUE REPORTED": "1000 to 10000 nM"}
{"COMPOUND": "Cc1ncccc1Nc1nccn1[C@H]1CCc2sc(NC(=O)C3CC3)c(C(=O)NCC3CC3)c2C1", "VALUE REPORTED": "< 1000 nM"}
